PROCEDURE_TEXT: Evaluation of total body clearance (CLtot), intravenous administration
Assay type: in vivo, Sprague-Dawley (SD)
PROTOCOL_CONDITIONS: rat (SD), intravenous administration 0.5-10 mg/kg; CLtot = dose/AUC
rat_CLt overview
MEASURED_ATTRIBUTE: rat_CLt

- COMPOUND: "COc1ccc(S(=O)(=O)N(CC(C)C)CC(O)C(Cc2ccc(OCc3nccnc3-c3ccc(-c4sc5c(c4C(=O)O)CC(C)(C)CC5)cc3)cc2)NC(=O)OC2COC3(C)OCCC23)cc1 (stereo not shown) [Compound I-195]"
  RECORDED_VALUE: "6.74 mL/min/kg"
- COMPOUND: "CC(C)CN(CC(O)C(Cc1ccc(OCc2ccccc2-c2ccc3c(c2)C(=O)C(c2ccc(F)cc2)C3=O)cc1)NC(=O)OC1COC2(C)OCCC12)S(=O)(=O)c1ccc2ncsc2c1 (stereo not shown) [Compound I-175]"
  RECORDED_VALUE: "4.44 mL/min/kg"
- COMPOUND: "COc1ccc(S(=O)(=O)N(CC(C)C)CC(O)C(Cc2ccc(N(Cc3ccccc3)Cc3sc4c(c3C(=O)O)CC(C)(C)CC4)cc2)NC(=O)OC2COC3(C)OCCC23)cc1 (stereo not shown) [Compound I-47]"
  RECORDED_VALUE: "3.51 mL/min/kg"
- COMPOUND: "COc1ccc(S(=O)(=O)N(CC(C)C)C[C@@H](O)[C@H](Cc2ccc(NCc3cc(-c4ccc(N(C)C)cc4)ccc3-c3sc4c(c3C(=O)O)CC(C)(C)CC4)cc2)NC(=O)O[C@H]2CO[C@@]3(C)OCC[C@@H]23)cc1 [Compound I-720]"
  RECORDED_VALUE: "0.0677 mL/min/kg"
- COMPOUND: "COc1ccc(S(=O)(=O)N(CC(C)C)CC(O)C(Cc2ccc(NCc3ccccc3-c3sc4c(c3C(=O)O)CC(C)(C)CC4(C)C)cc2)NC(=O)OC2COC3(C)OCCC23)cc1 (stereo not shown) [Compound I-418]"
  RECORDED_VALUE: "1.49 mL/min/kg"
- COMPOUND: "COc1ccc(S(=O)(=O)N(CC(C)C)CC(O)C(Cc2ccc(N3CC(Oc4ccccc4-c4sc5c(c4C(=O)O)CC(C)(C)CC5)C3)cc2)NC(=O)OC2COC3(C)OCCC23)cc1 (stereo not shown) [Compound I-357]"
  RECORDED_VALUE: "1.55 mL/min/kg"
- COMPOUND: "COc1ccc(S(=O)(=O)N(CC(C)C)CC(O)C(Cc2ccc(N(C)Cc3cc(N(C)C)ccc3-c3sc4c(c3C(=O)O)CC(C)(C)CC4)cc2)NC(=O)OC2COC3(C)OCCC23)cc1 (stereo not shown) [Compound I-538]"
  RECORDED_VALUE: "0.598 mL/min/kg"
- COMPOUND: "COc1ccc(S(=O)(=O)N(CC(C)C)CC(O)C(Cc2ccc(NCc3ccc(C(=O)NCc4ccc(F)cc4)cc3-c3sc4c(c3C(=O)O)CC(C)(C)CC4)cc2)NC(=O)OC2COC3(C)OCCC23)cc1 (stereo not shown) [Compound I-481]"
  RECORDED_VALUE: "3.29 mL/min/kg"
- COMPOUND: "COc1ccc(S(=O)(=O)N(CC(C)C)CC(O)C(Cc2ccc(N(C)Cc3cc(N4CCCC4)ccc3-c3sc4c(c3C(=O)O)CC(C)(C)CC4)cc2)NC(=O)OC2COC3(C)OCCC23)cc1 (stereo not shown) [Compound I-539]"
  RECORDED_VALUE: "0.156 mL/min/kg"
- COMPOUND: "COc1ccc(S(=O)(=O)N(CC(C)C)CC(O)C(Cc2ccc(N(C)C3CN(c4ccc(-c5sc6c(c5C(=O)O)CC(C)(C)CC6)cc4)C3)cc2)NC(=O)OC2COC3(C)OCCC23)cc1 (stereo not shown) [Compound I-391]"
  RECORDED_VALUE: "10.3 mL/min/kg"
